TARGET UNDER TEST: rabbit Imidazoline 2 Central (I2C), CKB (gene 100009085)
ASSAY REMARKS: NVS_ENZ_rabI2C: NovaScreen (NVS) Enzymatic Assay for rabbit Imidazoline 2 Central (I2C) (AID 2283228)
Inconclusive results are not listed. The source made the active and inactive calls. The calls were made as follows: active = hit-call score of the fitted dose curve at least 0.9, where 1 is the maximum; inconclusive = response in the unintended direction; inactive = score below 0.9.
Outcome codes: 1 (active), -1 (inactive)

# MOLECULE, LABEL CLASS
data = [
    ("CCOC(=O)[C@]1(c2ccccc2)Oc2ccccc2[C@@H]1N", 1),
    ("Cc1ccc(N)c(N)c1", -1),
    ("CN(C)C(=O)Nc1ccc(Cl)cc1", -1),
    ("CC(C)(O)c1cnn2c(-c3ccc(F)c(-c4c(F)cccc4C#N)c3)cnc2n1", 1),
    ("CN(C)c1ccc(C(=O)c2ccc(N(C)C)cc2)cc1", -1),
]
